Species: Rattus norvegicus
Experiment: Open TG-GATES - Regimen: Daily Repeat
Format: toxicity, organism-based, Sprague-Dawley
Design: regimen Daily Repeat, gender Male, age 6 weeks
Details: in vivo, po, 0 mg/kg, […], tissue Plasma, route gavage, dose level Control, time 28 day
Consider the following compounds; for each one, report its RALB.
State just the number; it will be interpreted in g/dL.

For reference, reported RALB for CN(C)C(=N)N=C(N)N stands at 2.7

Lab note: CC1=C(CC(=O)O)c2cc(F)ccc2/C1=C\c1ccc([S+](C)[O-])cc1 (stereo unspecified) gave RALB of 2.7

Value of measured RALB for the entry CCc1oc2ccccc2c1C(=O)c1cc(Br)c(O)c(Br)c1 : 4

What the record says about O=NN(CCCl)C(=O)NC1CCCCC1 : RALB is 4

Lab book: RALB of OCCOCCN1CCN(C(c2ccccc2)c2ccc(Cl)cc2)CC1 (stereo unspecified) [HYDROXYZINE] noted as 2.8

Measured RALB, ClC(Cl)(Cl)Cl [CARBON TETRACHLORIDE] : 3.5
